The measurements presented in this section are drawn from ChEMBL document CHEMBL1132566.

# testedTarget: B1 bradykinin receptor (Rattus norvegicus, UniProt P97583)
# Sequence (P97583 whole entry): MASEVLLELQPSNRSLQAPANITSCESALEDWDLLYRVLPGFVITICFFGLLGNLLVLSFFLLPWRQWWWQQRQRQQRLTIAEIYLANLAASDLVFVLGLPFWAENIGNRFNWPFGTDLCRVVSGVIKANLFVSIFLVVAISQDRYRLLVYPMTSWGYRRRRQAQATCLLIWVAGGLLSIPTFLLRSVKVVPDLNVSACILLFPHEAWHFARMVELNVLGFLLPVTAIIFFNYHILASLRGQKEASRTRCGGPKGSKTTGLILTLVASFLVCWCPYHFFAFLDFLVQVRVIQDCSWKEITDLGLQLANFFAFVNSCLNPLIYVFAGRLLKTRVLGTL
# runDescription: Antagonistic activity against Bradykinin receptor B1 of rat ileum longitudinal smooth muscle.
# Assay type: functional, tissue-based
# measurementContext: read-out: pA2 (converted)
readout: Kb
Your reply should be a number followed by the unit it is expressed in.

Solved entries:
NC(N)=NCCC[C@@H](N)C(=O)N[C@@H](CCCN=C(N)N)C(=O)NCCCC(=O)NC1(C(=O)NCCCC(=O)N[C@@H](CO)C(=O)N2Cc3ccccc3C[C@@H]2C(=O)N2[C@H](C(=O)O)C[C@@H]3CCCC[C@@H]32)CCCCCC1 = 2 µM
NC(N)=NCCC[C@@H](N)C(=O)N[C@@H](CCCN=C(N)N)C(=O)NCCC(=O)NC1(C(=O)NCCC(=O)N[C@@H](CO)C(=O)N2Cc3ccccc3C[C@@H]2C(=O)N2[C@H](C(=O)O)C[C@@H]3CCCC[C@@H]32)CCCCCC1 = 2.51 µM

*Q* Fill in: Kb of `NC(N)=NCCC[C@@H](N)C(=O)N[C@@H](CCCN=C(N)N)C(=O)NC1(C(=O)N[C@@H](CO)C(=O)N2Cc3ccccc3C[C@@H]2C(=O)N2[C@H](C(=O)O)C[C@@H]3CCCC[C@@H]32)CCCCC1` is ___
*A* 10 µM

*Q* For `NC(N)=NCCC[C@@H](N)C(=O)N[C@@H](CCCN=C(N)N)C(=O)NCCCCCCCCCCC(=O)N[C@@H](CO)C(=O)N[C@@H](C(=O)N1[C@H](C(=O)N[C@@H](CCCN=C(N)N)C(=O)O)C[C@@H]2CCCC[C@@H]21)C1Cc2ccccc2C1` , what is its reported Kb?
*A* 10 µM

###

# testedTarget: B2 bradykinin receptor (Cavia porcellus, UniProt O70526)
# Sequence (O70526 whole entry): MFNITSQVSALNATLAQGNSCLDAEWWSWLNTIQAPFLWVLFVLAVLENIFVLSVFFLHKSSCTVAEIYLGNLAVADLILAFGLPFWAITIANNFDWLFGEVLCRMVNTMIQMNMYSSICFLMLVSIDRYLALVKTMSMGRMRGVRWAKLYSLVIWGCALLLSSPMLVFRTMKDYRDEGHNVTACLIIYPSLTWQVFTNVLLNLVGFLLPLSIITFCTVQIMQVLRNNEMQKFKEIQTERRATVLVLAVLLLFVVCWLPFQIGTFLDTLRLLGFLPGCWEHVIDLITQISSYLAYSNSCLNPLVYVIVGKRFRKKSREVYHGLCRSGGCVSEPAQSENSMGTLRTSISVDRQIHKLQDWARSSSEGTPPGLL
# runDescription: Antagonistic activity against Bradykinin receptor B2 of guinea pig ileum longitudinal smooth muscle.
# Format: functional, tissue-based
# measurementContext: read-out: pA2 (converted)
Where a SMILES comes first, the peptide text is derived from it. [ ]: non-standard residue; d: D form. Oic = O=C(O)[C@@H]1C[C@@H]2CCCC[C@@H]2N1; d2Nal = N[C@H](Cc1ccc2ccccc2c1)C(=O)O; Hyp = O=C(O)[C@@H]1C[C@@H](O)CN1; dTic = O=C(O)[C@H]1Cc2ccccc2CN1; 2Thi = N[C@@H](Cc1cccs1)C(=O)O
Parameter Kb: see the listing below.
Give the value, in units of µM, as a plain number.

NC(N)=NCCC[C@@H](N)C(=O)N[C@@H](CCCN=C(N)N)C(=O)N1CCC[C@H]1C(=O)N1C[C@H](O)C[C@H]1C(=O)NCC(=O)N[C@H](C(=O)N[C@@H](CO)C(=O)N[C@@H](C(=O)N1[C@H](C(=O)N[C@@H](CCCN=C(N)N)C(=O)O)C[C@@H]2CCCC[C@@H]21)C1Cc2ccccc2C1)C1Cc2ccccc2C1 = 0.00631
CC[C@H](C)[C@H](NC(=O)[C@@H](Cc1ccc2ccccc2c1)NC(=O)[C@H](CO)NC(=O)[C@H](Cc1ccccc1)NC(=O)CNC(=O)[C@@H]1CCCN1C(=O)[C@@H]1CCCN1C(=O)[C@H](CCCN=C(N)N)NC(=O)[C@H](CCCCN)NC(C)=O)C(=O)O (Ac-KRPPGFS[d2Nal]I-OH) = 1
NC(N)=NCCC[C@@H](N)C(=O)N[C@@H](CCCN=C(N)N)C(=O)NCCCCCCCCCCCC(=O)N[C@@H](CO)C(=O)N1Cc2ccccc2C[C@@H]1C(=O)N1[C@H](C(=O)O)C[C@@H]2CCCC[C@@H]21 = 3.98
NCCCC[C@H](NC(=O)[C@@H](N)CCCCN)C(=O)N[C@@H](CCCN=C(N)N)C(=O)N1CCC[C@H]1C(=O)N1C[C@H](O)C[C@H]1C(=O)NCC(=O)N[C@H](C(=O)N[C@@H](CO)C(=O)N[C@@H](C(=O)N1[C@H](C(=O)O)C[C@@H]2CCCC[C@@H]21)C1Cc2ccccc2C1)C1Cc2ccccc2C1 = 3.16
NC(N)=NCCC[C@@H](N)C(=O)N[C@@H](CCCN=C(N)N)C(=O)NCCCCCCCCCCC(=O)N[C@@H](CO)C(=O)N[C@@H](C(=O)N1[C@H](C(=O)N[C@@H](CCCN=C(N)N)C(=O)O)C[C@@H]2CCCC[C@@H]21)C1Cc2ccccc2C1 = 0.794

*Q* GET /values?readout=Kb&item= `CC[C@H](C)[C@H](NC(=O)[C@@H](Cc1ccc2ccccc2c1)NC(=O)[C@H](CO)NC(=O)CCCCCCCCCCNC(=O)[C@H](CCCN=C(N)N)NC(=O)[C@H](CCCCN)NC(C)=O)C(=O)O`
*A* 1.26

*Q* So what's the measured Kb for this one? N=C(N)NCCC[C@@H](N)C(=O)N[C@@H](CCCNC(=N)N)C(=O)N1CCC[C@H]1C(=O)N1C[C@H](O)C[C@H]1C(=O)NCC(=O)N[C@@H](Cc1cccs1)C(=O)N[C@@H](CO)C(=O)N1Cc2ccccc2C[C@@H]1C(=O)N1[C@H](C(=O)O)C[C@@H]2CCCC[C@@H]21 (H-[dR]RP[Hyp]G[2Thi]S[dTic][Oic]-OH)
*A* 2

###

Known Kb of a selection of compounds
# testedTarget: B1 bradykinin receptor (Rattus norvegicus)
# runDescription: Antagonistic activity against Bradykinin receptor B1 of rat ileum longitudinal smooth muscle.
# Type: functional, tissue-based
# measurementContext: read-out: pA2 (converted)
Your answer should be a plain number; it is taken to be in µM.

Field: example entries. Status: answers known.
NC(N)=NCCC[C@@H](N)C(=O)N[C@@H](CCCN=C(N)N)C(=O)NCCCCCC(=O)N[C@@H](CO)C(=O)N1Cc2ccccc2C[C@@H]1C(=O)N1[C@H](C(=O)O)C[C@@H]2CCCC[C@@H]21 = 2
NC(N)=NCCC[C@@H](N)C(=O)N[C@@H](CCCN=C(N)N)C(=O)NC1(C(=O)N[C@@H](CO)C(=O)N2Cc3ccccc3C[C@@H]2C(=O)N2[C@H](C(=O)O)C[C@@H]3CCCC[C@@H]32)CCCCCC1 = 1.26
NC(N)=NCCC[C@@H](N)C(=O)N[C@@H](CCCN=C(N)N)C(=O)N1CCC[C@H]1C(=O)N1C[C@H](O)C[C@H]1C(=O)NCC(=O)N[C@H](C(=O)N[C@@H](CO)C(=O)N[C@@H](C(=O)N1[C@H](C(=O)N[C@@H](CCCN=C(N)N)C(=O)O)C[C@@H]2CCCC[C@@H]21)C1Cc2ccccc2C1)C1Cc2ccccc2C1 = 0.02
NC(N)=NCCC[C@@H](N)C(=O)N[C@@H](CCCN=C(N)N)C(=O)NC1(C(=O)N[C@@H](CO)C(=O)N2Cc3ccccc3C[C@@H]2C(=O)N2[C@H](C(=O)O)C[C@@H]3CCCC[C@@H]32)CCCCCCCC1 = 6.31
NC(N)=NCCC[C@@H](N)C(=O)N[C@@H](CCCN=C(N)N)C(=O)NCCCCCCCC(=O)N[C@@H](CO)C(=O)N1Cc2ccccc2C[C@@H]1C(=O)N1[C@H](C(=O)O)C[C@@H]2CCCC[C@@H]21 = 3.98
NCCCC[C@H](NC(=O)[C@@H](N)CCCCN)C(=O)N[C@@H](CCCN=C(N)N)C(=O)N1CCC[C@H]1C(=O)N1C[C@H](O)C[C@H]1C(=O)NCC(=O)N[C@H](C(=O)N[C@@H](CO)C(=O)N[C@@H](C(=O)N1[C@H](C(=O)O)C[C@@H]2CCCC[C@@H]21)C1Cc2ccccc2C1)C1Cc2ccccc2C1 = 0.00794

*Q* What does the record list as Kb for `NC(N)=NCCC[C@@H](N)C(=O)N[C@@H](CCCN=C(N)N)C(=O)NCCCCCCCCCCCC(=O)N[C@@H](CO)C(=O)N1Cc2ccccc2C[C@@H]1C(=O)N1[C@H](C(=O)O)C[C@@H]2CCCC[C@@H]21` ?
*A* 0.1

*Q* Entry `CC(=O)N[C@@H](CCCCN)C(=O)N[C@@H](CCCN=C(N)N)C(=O)NCCCCCCCCCCC(=O)N[C@@H](CO)C(=O)N1Cc2ccccc2C[C@@H]1C(=O)N1[C@H](C(=O)O)C[C@@H]2CCCC[C@@H]21` has what Kb?
*A* 0.251
